Reference source for all entries: PubChem BioAssay (NCI)

Listed next: entries and their corresponding TGI.
Test system: SW-620 colon
Test: NCI tumour cell line growth inhibition, 48 h

{"molecule": "Fc1ccc(Nc2ccc3cc(OCCCN4CCOCC4)ccc3n2)cc1F", "targetOrSystem": "SW-620 colon", "TGI": "4.4 µM"}

**Query** State the recorded TGI for this entry: N=c1oc2cc(O)c(O)cc2cc1C(N)=O
**Result** > 100 µM

**Query** Continue with COC(=O)c1cccc(C)c1C1CN=NC12Cc1c(ccc(C)c1C)C2=O (stereo not given)
**Result** > 100 µM

**Query** Continue with CC(C)CC(NC(=O)OCc1ccccc1)C(=O)NCCCCC(N)C(=O)NC(CCCCNC(=O)C(CC(C)C)NC(=O)OCc1ccccc1)C(=O)NC(CCCCNC(=O)C(CC(C)C)NC(=O)OCc1ccccc1)C(=O)NC(CCCCNC(=O)C(CC(C)C)NC(=O)OCc1ccccc1)C(=O)NC(CCCCNC(=O)C(CC(C)C)NC(=O)OCc1ccccc1)C(=O)NC(CCCCNC(=O)C(CC(C)C)NC(=O)OCc1ccccc1)C(=O)O (stereo not given)
**Result** > 100 µM

**Query** Continue with OC1OC(c2ccc[nH]2)C(F)(F)C(F)(F)C1(F)F (stereo not given)
**Result** > 100 µM

###

Tested on: UACC-257 melanoma
Experiment: NCI tumour cell line growth inhibition, 48 h
measurementKind: TGI

Field: example entries. Status: answers known.
{"molecule": "CCCCCCCCO/N=C\\c1c2c(O)c3c(O)c(C)c4c(c3c1O)C(=O)C(C)(O/C=C\\C(OC)C(C)C(OC(C)=O)C(C)C(O)C(C)C(O)C(C)/C=C\\C=C(\\C)C(=O)N2)O4 (stereo not drawn)", "TGI": "4.69 µM"}
{"molecule": "CC(=O)/C(=C/N1C(=O)CC(=O)NC1=S)C(=O)Nc1ccccc1C", "TGI": "> 100 µM"}
{"molecule": "CCN(CC)CCCC(C)N/C(c1cccc(OC)c1)=c1\\c(=O)[nH]n(-c2c3ccccc3nc3ccccc23)c(=O)\\c1=C(/NC(C)CCCN(CC)CC)c1cccc(OC)c1 (stereo not drawn)", "TGI": "3.43 µM"}

**Query** State the recorded TGI for this entry: C=C1C(C2(C)C=CC(=O)OC3(C)COC(=O)CC32)C(OC=O)C(OC(=O)C(O)C(C)CC)C2(C)C(c3ccoc3)CC(OC(C)=O)C12O (stereo not drawn)
**Result** > 100 µM

**Query** Continue with O=C1OC2(c3ccccc31)c1cc(I)c(O)c(I)c1Oc1c2cc(I)c(O)c1I
**Result** > 100 µM

**Query** Continue with [N-]=[N+]=Nc1cc(=O)n(-c2ccccc2)c(=O)n1-c1ccccc1
**Result** > 100 µM

**Query** Continue with CCCCC1Cc2cc(OC)ccc2-c2nc3cc(OC)ccc3n21 (stereo not drawn) (tested in a mixture with another compound)
**Result** 29.9 µM

**Query** Continue with O=C(CC1(O)C(=O)Nc2ccccc21)c1ccc(O)cc1O (stereo not drawn)
**Result** > 100 µM

###

System: SF-295 CNS
Assay: NCI tumour cell line growth inhibition, 48 h
1.0 means recorded TGI is 7 µM or above; 0.0 means it is below 7 µM.

{"compound": "O=C(c1cccs1)c1c(C(F)(F)F)n([O-])c2cc(C(F)(F)F)ccc2[n+]1=O", "labelClass": 0.0}
{"compound": "COc1ccc(OC)c2sc(N3C(=O)/C(=C/c4ccccc4S)N=C3c3ccccc3)nc12", "labelClass": 1.0}
{"compound": "CC1=CC[C@@]2(C)[C@@H]([C@@H]1C)[C@H]1CC[C@@H]3[C@@]4(C)CC[C@H](O)C(C)(C)[C@@H]4CC[C@@]3(C)[C@]1(C)C[C@@H]2O", "labelClass": 1.0}
{"compound": "CN(C)CCNc1c([N+](=O)[O-])cc2c3c(cccc13)C(=O)N(CCN(C)C)C2=O", "labelClass": 0.0}
{"compound": "Cc1ccc(S(=O)(=O)Oc2coc(CO)cc2=O)cc1", "labelClass": 1.0}

**Query** Could you verify whether the entry O=C1CC(c2ccccc2)NCN1 (stereo not given) shows TGI of no less than 7 µM?
**Result** 1.0

**Query** Continue with O=C1C(Br)=C(c2ccccc2)C(c2ccccc2)=C1c1ccccc1
**Result** 1.0

**Query** Continue with CC(=O)CCC(=O)CC(O)(C(F)(F)F)C(F)(F)F
**Result** 1.0

**Query** Continue with O=C1c2scnc2-c2nccc3c2c1nc1ccccc13
**Result** 0.0

**Query** Continue with C/C=C/CP(=O)(c1ccccc1)c1ccccc1
**Result** 1.0
